# credit: ChEMBL document CHEMBL1667742

- procedure_text: Displacement of [125I]-angiotensin 2 from angiotensin AT1 receptor in rat liver membranes
- Assay type: cell membranes, Membrane
pIC50: −log10 of the molar value.
value_type: pIC50

In [3]: df
Out[3]:
                              smiles_string  number
0  CCCc1nc(-n2cccc2C(=O)C(F)(F)F)c(C(=O)O)n1Cc1ccc(-c2ccccc2-c2nn[nH]n2)cc1    9.10

* * *

- procedure_text: Displacement of [125I]-Sar1Ile8-angiotensin 2 from angiotensin AT1 receptor in rat adrenal cortical membranes
- Type: cell membranes, Membrane
value_type: Ki (nM)

>>> print(df.to_string())
                              smiles_string  unit_info  number
0  CCCCc1nc(Cl)c(C(=O)[O-])n1Cc1cccc2c1ccn2-c1ccccc1-c1nn[n-]n1.[Li+].[Li+]         nM    18.4
